Test system: NOTCH1
Assay: 3' UTR reporter interaction score (median-centred robust z-score of log2 firefly/Renilla activity); higher = less repression of the 3' UTR reporter
Conditions: HEK293T; 48 h
quantity: 3' UTR reporter interaction score
Form rule: numeric answer, no unit written next to it.

Solved cases (3 shown):
# residue-string, quantity, experimental-value
measured = [
    ("UCUAGGCUGGUACUGCUGA", "3' UTR reporter interaction score", -0.326),
    ("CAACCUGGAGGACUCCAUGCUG", "3' UTR reporter interaction score", -0.127),
    ("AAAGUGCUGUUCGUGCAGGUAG", "3' UTR reporter interaction score", 0.83),
]

// query Tell me the measured 3' UTR reporter interaction score of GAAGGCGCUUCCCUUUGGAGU , please.
// result -0.115

// query Tell me the measured 3' UTR reporter interaction score of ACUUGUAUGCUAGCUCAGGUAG , please.
// result -2.55

// query Tell me the measured 3' UTR reporter interaction score of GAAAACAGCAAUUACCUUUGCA , please.
// result -1.34

// query Tell me the measured 3' UTR reporter interaction score of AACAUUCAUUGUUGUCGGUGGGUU , please.
// result 0.549

// query Tell me the measured 3' UTR reporter interaction score of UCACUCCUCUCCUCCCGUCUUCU , please.
// result 1.17
